Measured values drawn from the supplement of paper PMC10567573 for this set.

Form field: protein stability index (one value per entry).
B1: KCTD10 (parent)
chain: SSKEEQKLIATSNKPAVKLLYNRS

- Variants of: B1
- Experimental details: protein stability index of a GFP-peptide fusion (GPS, HEK-293T) (PSI 1-6); higher = more stable;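 further: lentivirally expressed fusions sorted by FACS into six bins by GFP to DsRed ratio, PSI derived from sequencing read proportions per bin multiplied by bin number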
- Test context: c terminus: a fixed tail appended
No unit in the answer, please; the number alone is enough.

The following variants have reported results that may help.
> print(dat)
   mutation.code                  readout  recorded.result
1            I9W  protein stability index             3.93
2           N22H  protein stability index             4.01

For the next question, use this variant.
The recorded protein stability index for `T11H` is 3.94
